biological target: Human GLP-1 receptor stably expressing cells (hGLP-1R/CHO-K1 cells) (Homo sapiens, UniProt P43220); construct: expressed in transfected cells; experiment: Measurement of GLP-1 receptor agonist activity (cAMP assay); assay type: cell-based; conditions: CHO-K1, maximum effect; cAMP with 2 nM human GLP-1 (7-36) = 100%, DMSO only = 0%; read-out: Emax
Sequence (P43220 24-463): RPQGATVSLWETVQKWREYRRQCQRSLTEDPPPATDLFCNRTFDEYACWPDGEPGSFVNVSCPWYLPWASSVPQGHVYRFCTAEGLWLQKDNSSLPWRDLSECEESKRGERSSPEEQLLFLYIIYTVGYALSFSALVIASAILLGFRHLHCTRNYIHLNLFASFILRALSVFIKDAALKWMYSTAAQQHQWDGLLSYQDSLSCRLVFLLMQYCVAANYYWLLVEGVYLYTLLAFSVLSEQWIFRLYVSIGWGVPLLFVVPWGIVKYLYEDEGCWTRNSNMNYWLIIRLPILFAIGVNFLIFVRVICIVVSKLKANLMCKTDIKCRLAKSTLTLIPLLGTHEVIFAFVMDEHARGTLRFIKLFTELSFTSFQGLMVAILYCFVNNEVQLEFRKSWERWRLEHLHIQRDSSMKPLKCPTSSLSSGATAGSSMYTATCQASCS
Each record here notes measured Emax.

Examples with their reported Emax follow.
{"columns": ["molecule", "Emax"],
 "data": [
  ["COc1cc(C(=O)O)cc2c1nc(CN1CCc3cc(C(F)(F)F)c(NCc4ccc(Cl)cc4)nc3[C@@H]1C)n2C[C@@H]1CCO1", "122%"],
  ["COc1cc(C(=O)O)cc2c1nc(CN1CCc3cc(C#N)c(OCc4ccc(Cl)cc4)nc3[C@@H]1C)n2C[C@@H]1CCO1", "124%"],
  ["COc1cc(C(=O)O)cc2c1nc(CN1CCc3cc(Cl)c(OCc4ccc(Cl)cc4Cl)nc3[C@@H]1C)n2C[C@@H]1CCO1", "105%"],
  ["COc1cc(C(=O)O)cc2c1nc(CN1CCc3cc(Cl)c(OCc4ccc(Cl)cc4)nc3[C@@H]1C)n2C[C@@H]1CCO1", "106%"],
  ["C[C@H]1c2nc(OCc3c(F)cc(Cl)cc3F)c(C(F)F)cc2CCN1Cc1nc2ccc(C(=O)O)nc2n1C[C@@H]1CCO1", "108%"]
]}

IN: # input molecule: C[C@H]1c2nc(OCc3ccc(C#N)cc3F)c(Cl)cc2CCN1Cc1nc2c(F)cc(C(=O)O)cc2n1C[C@@H]1CCO1 ; wanted: its Emax
OUT: 101%

IN: # input molecule: COc1cc(C(=O)O)cc2c1nc(CN1CCc3cc(Cl)c(OCc4c(F)cc(Cl)cc4F)cc3[C@@H]1C)n2C[C@@H]1CCO1 ; wanted: its Emax
OUT: 104%

IN: # input molecule: C[C@H]1c2nc(OCc3ccc(Cl)cc3)c(C(F)F)cc2CCN1Cc1nc2ccc(C(=O)O)c(F)c2n1C[C@@H]1CCO1 ; wanted: its Emax
OUT: 113%

IN: # input molecule: C[C@H]1c2nc(OCc3ccc(F)cc3)c(C(F)F)cc2CCN1Cc1nc2ccc(C(=O)O)cc2n1C[C@@H]1CCO1 ; wanted: its Emax
OUT: 118%

IN: # input molecule: COc1cc(C(=O)O)cc2c1nc(CN1CCc3cc(C(F)(F)F)c(OCc4cc(Cl)n(C)n4)nc3[C@@H]1C)n2C[C@@H]1CCO1 ; wanted: its Emax
OUT: 96.3%

###

Each record here notes measured Emax.
molecular target: Human GLP-1 receptor stably expressing cells (hGLP-1R/CHO-K1 cells) (Homo sapiens, UniProt P43220); construct: expressed in transfected cells; test: Measurement of GLP-1 receptor agonist activity (cAMP assay); type: cell-based; details: CHO-K1, maximum effect; cAMP with 2 nM human GLP-1 (7-36) = 100%, DMSO only = 0%; read-out: Emax
// return numeric value only (unit: %, not printed)

Examples with their reported Emax follow.
{"columns": ["molecule", "reading.unit", "Emax"],
 "data": [
  ["C[C@H]1c2nc(OCc3c(F)cc(F)cc3F)c(C(F)F)cc2CCN1Cc1nc2ccc(C(=O)O)cc2n1C[C@@H]1CCO1", "%", 101],
  ["C[C@H]1c2c(cc(Cl)c3c2OC(C)(c2ccc(Cl)cn2)O3)CCN1Cc1nc2ccc(C(=O)O)cc2n1C[C@@H]1CCO1 (stereo partly shown)", "%", 108],
  ["COc1cc(C(=O)O)cc2c1nc(CN1CCc3cc(C(F)F)c(OCc4ccccc4Cl)nc3[C@@H]1C)n2C[C@@H]1CCO1", "%", 141],
  ["C[C@H]1c2nc(OCc3ccc(Cl)cc3F)c(Cl)cc2CCN1Cc1nc2ccc(C(=O)O)nc2n1C[C@@H]1CCO1", "%", 103],
  ["C[C@H]1c2nc(OCc3ccc(Cl)cc3)c(Cl)cc2CCN1Cc1nc2c(F)cc(C(=O)O)cc2n1C[C@@H]1CCO1", "%", 100],
  ["COc1cc(C(=O)O)cc2c1nc(CN1CCc3cc(C(F)(F)F)c4c(c3[C@@H]1C)O[C@@](C)(c1ccc(Cl)cn1)O4)n2C[C@@H]1CCO1", "%", 99.3],
  ["COc1cc(C(=O)O)cc2c1nc(CN1CCc3cc(C(F)F)c(OCc4ccc(Cl)cc4F)nc3[C@@H]1C)n2C[C@@H]1CCO1", "%", 128],
  ["Cc1ccc(COc2nc3c(cc2Cl)CCN(Cc2nc4ccc(C(=O)O)c(F)c4n2C[C@@H]2CCO2)[C@H]3C)cc1", "%", 124],
  ["COc1cc(C(=O)O)cc2c1nc(CN1CCc3cc(Cl)c(OCc4ccc(F)cc4)nc3[C@@H]1C)n2C[C@@H]1CCO1", "%", 101],
  ["COc1cc(C(=O)O)cc2c1nc(CN1CCc3cc(C(F)F)c(OCc4ccc(Cl)cn4)nc3[C@@H]1C)n2C[C@@H]1CCO1", "%", 122]
]}

IN: # input molecule: Cc1ccc(COc2cc3c(cc2C(F)F)CCN(Cc2nc4ccc(C(=O)O)cc4n2C[C@@H]2CCO2)[C@H]3C)cc1 ; wanted: its Emax
OUT: 111

IN: # input molecule: C[C@H]1c2c(cc(C(F)(F)F)c3c2O[C@](C)(c2ccc(Cl)cc2F)O3)CCN1Cc1nc2ccc(C(=O)O)cc2n1C[C@@H]1CCO1 ; wanted: its Emax
OUT: 112

IN: # input molecule: C[C@H]1c2nc(OCc3ccc(Cl)cn3)c(C(F)F)cc2CCN1Cc1nc2ccc(C(=O)O)c(F)c2n1C[C@@H]1CCO1 ; wanted: its Emax
OUT: 127
